B1: ACSBG2 (parent)
chain: FAQADALKGTLVSTLKEVKPTVFI

# Variants of: B1
# ASSAY DETAILS: protein stability index of a GFP-peptide fusion (GPS, HEK-293T) (PSI 1-6); higher = more stable;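 further: lentivirally expressed fusions sorted by FACS into six bins by GFP to DsRed ratio, PSI derived from sequencing read proportions per bin multiplied by bin number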
# CONDITION: c terminus: a fixed tail appended
Everything with protein stability index lower than 2 is no (0); everything else, including exactly 2, is yes (1).

Example cases with answers are listed next.
INSERT INTO assay_data (sequence_chain, answer_label) VALUES
  ('FAQADALKGTLVSTLKEVKPHVFI [T21H]', 'no (0)'),
  ('FAQADALHGTLVSTLKEVKPTVFI [K8H]', 'yes (1)'),
  ('FAQADALKGTLVSTLKLVKPTVFI [E17L]', 'yes (1)'),
  ('FAQADALKGTLVQTLKEVKPTVFI [S13Q]', 'no (0)');

Request: Is protein stability index for FAQADALKGTLVSTLKEVRPTVFI [K19R] at or above 2?
Response: no (0)
